Target: VEGFR2 (Homo sapiens (Human))
Sequence (P35968 20-1356): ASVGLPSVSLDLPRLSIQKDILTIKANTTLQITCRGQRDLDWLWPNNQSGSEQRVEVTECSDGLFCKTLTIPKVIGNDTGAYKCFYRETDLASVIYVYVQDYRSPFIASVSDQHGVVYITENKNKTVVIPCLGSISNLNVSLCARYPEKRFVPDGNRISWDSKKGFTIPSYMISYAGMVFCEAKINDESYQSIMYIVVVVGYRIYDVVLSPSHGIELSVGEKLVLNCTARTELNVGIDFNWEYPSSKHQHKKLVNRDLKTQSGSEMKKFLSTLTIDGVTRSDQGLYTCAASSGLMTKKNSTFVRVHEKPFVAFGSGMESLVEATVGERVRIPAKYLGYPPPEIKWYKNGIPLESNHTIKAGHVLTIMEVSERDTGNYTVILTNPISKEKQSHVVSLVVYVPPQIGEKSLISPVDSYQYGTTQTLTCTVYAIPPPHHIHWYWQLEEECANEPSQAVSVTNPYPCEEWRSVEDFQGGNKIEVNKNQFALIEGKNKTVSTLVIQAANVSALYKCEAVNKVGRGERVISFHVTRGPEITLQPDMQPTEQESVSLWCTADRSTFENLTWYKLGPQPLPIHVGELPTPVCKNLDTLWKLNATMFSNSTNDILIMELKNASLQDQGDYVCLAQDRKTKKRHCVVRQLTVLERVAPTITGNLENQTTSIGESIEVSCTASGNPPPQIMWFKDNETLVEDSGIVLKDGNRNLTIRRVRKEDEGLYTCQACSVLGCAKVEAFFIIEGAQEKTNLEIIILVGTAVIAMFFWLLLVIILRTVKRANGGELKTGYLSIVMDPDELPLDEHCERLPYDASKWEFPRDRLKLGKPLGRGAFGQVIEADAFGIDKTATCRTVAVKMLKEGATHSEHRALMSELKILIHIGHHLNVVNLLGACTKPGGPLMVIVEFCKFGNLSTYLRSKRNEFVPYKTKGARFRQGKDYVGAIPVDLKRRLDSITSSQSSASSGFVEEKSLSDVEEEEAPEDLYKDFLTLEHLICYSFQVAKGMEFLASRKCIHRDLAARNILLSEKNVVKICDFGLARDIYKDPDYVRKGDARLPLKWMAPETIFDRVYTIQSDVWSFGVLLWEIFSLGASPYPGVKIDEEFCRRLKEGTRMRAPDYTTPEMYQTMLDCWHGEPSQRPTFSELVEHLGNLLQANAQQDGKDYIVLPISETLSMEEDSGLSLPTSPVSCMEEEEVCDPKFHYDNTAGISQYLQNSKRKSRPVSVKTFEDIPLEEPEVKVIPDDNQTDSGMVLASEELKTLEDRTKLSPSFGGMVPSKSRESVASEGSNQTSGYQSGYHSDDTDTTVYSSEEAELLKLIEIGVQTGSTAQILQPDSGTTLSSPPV
Assay: VEGF Stimulated Ca++ Signal In Vitro (Cellular VEGFR2, FLIPR)
Conditions: HUVEC, VEGF stimulation (5 ng/mL), intracellular calcium
For each record, write down the corresponding pIC50.
Keep it numeric: pIC50 is minus log10 of the concentration in mol/L.

Recorded pIC50 (compound Cc1ccc(F)c(NC(=O)Nc2ccc(Oc3ccnc4cc(C(=O)NCCCNC(=O)OC(C)(C)C)sc34)cc2F)c1 ): 7.80

Recorded pIC50 (compound COC(=O)c1cc2nccc(Oc3ccc(NC(=O)Nc4cc(C)ccc4F)cc3)c2s1 ): 8.70

Recorded pIC50 (compound CCNC(=O)[C@H](CCC(=O)O)NC(=O)c1cc2nccc(Oc3ccc(NC(=O)Nc4cc(C)ccc4F)c(F)c3)c2s1 ): 6.48

Recorded pIC50 (compound Cc1ccc(F)c(NC(=O)Nc2ccc(Oc3ccnc4cc(C(=O)NCCCN)sc34)cc2F)c1 ): 8.00

Recorded pIC50 (compound COC(=O)c1cc2nccc(-c3ccc(NC(=O)Nc4cc(C)ccc4F)cc3)c2s1 ): 5.00
